Molecular target: mouse MMP-2 (R&D Systems #924-MP-010) (mouse) (UniProt P33434)
Assay: Ki,app, enzyme inhibition assay (fluorogenic peptide substrate), medium-scale sFab
READOUT: pKi
Worth noting: pKi values are minus log10 of concentrations stated in mol/L.

*Q* # get_value(readout='pKi', item= M0273-A11 (Fab, V domains shown) VH: EVQLLESGGGLVQPGGSLRLSCAASGFTFSRYDMWWVRQAPGKGLEWVSVISPSGGATFYADSVKGRFTISRDNSKNTLYLQMNSLRAEDTAVYYCAKDRAYGDYVGWNGFDYWGQGTLVTVSS VL: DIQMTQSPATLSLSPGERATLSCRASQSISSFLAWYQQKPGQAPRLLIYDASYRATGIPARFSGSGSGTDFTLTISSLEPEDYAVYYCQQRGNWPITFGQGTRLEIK )
*A* 7.49
